# Tested on: S. typhimurium 14028
# Format: cell-based, Salmonella typhimurium
# Measurement Context: 14028, 24 h
Where no end group is shown, it is not given here.
Hi! Just check whether MIC is below 20 µM. Below gives 1.0, equal or above gives 0.0.

[
  {
    "Substance": "LRRLRLRLL-NH2 [L3]",
    "Target System": "S. typhimurium 14028",
    "Label Class": 0.0
  },
  {
    "Substance": "RRLLLRLRL-NH2 [L8]",
    "Target System": "S. typhimurium 14028",
    "Label Class": 0.0
  },
  {
    "Substance": "WRRRRWWWW-NH2 [W11]",
    "Target System": "S. typhimurium 14028",
    "Label Class": 1.0
  },
  {
    "Substance": "RLLLLRRLR-NH2 [L10]",
    "Target System": "S. typhimurium 14028",
    "Label Class": 0.0
  },
  {
    "Substance": "RLRLRRLLL-NH2 [L9]",
    "Target System": "S. typhimurium 14028",
    "Label Class": 0.0
  },
  {
    "Substance": "RRLLLLRRL-NH2 [L7]",
    "Target System": "S. typhimurium 14028",
    "Label Class": 0.0
  },
  {
    "Substance": "LLRLLRRRL-NH2 [L1]",
    "Target System": "S. typhimurium 14028",
    "Label Class": 1.0
  },
  {
    "Substance": "WRRWRWWRW-NH2 [W12]",
    "Target System": "S. typhimurium 14028",
    "Label Class": 1.0
  }
]

Q. Quick check: does RWWWWRRWR-NH2 [W10] have MIC under 20 µM?
A. 1.0

Q. Does WWRWWRRRW-NH2 [W1] have MIC strictly under 20 µM?
A. 1.0

Q. Take the substance WWWRRRRWW-NH2 [W4] and say whether its MIC is less than 20 µM.
A. 1.0

Q. # check: MIC < 20 µM for LRRLRLLRL-NH2 [L12]
A. 0.0

Q. MIC under 20 µM? Item: RLRLRLRLL-NH2 [L5]
A. 1.0

Q. State whether 20 µM exceeds MIC recorded for LRRRRLLLL-NH2 [L11] .
A. 0.0
